# test-protocol: folding stability dG unfold (combined trypsin and chymotrypsin); higher = more stable
parameter-measured: folding stability dG unfold

[[record]]
seq = "SAGGMLRTVKTEKYSDGTVVEPVADAAGNVTYTIVKKRKKVFDGDKVYYSEPVTIFKNGVKVEEKNISSAGG [r13_1007_JUSTAS]"
result = "< -1 kcal/mol"

[[record]]
seq = "SAGGPKIHIDRGPDYIRVKINGPDGKPIAPSTIPYEDPDNGEEEEVKIPIEELAQESGFPIEIEPYDSAGGS [r16_778_TrROS]"
result = "< -1 kcal/mol"

[[record]]
seq = "SAGGSAGGSPIMVRVERRDKDGKKKPVPTIPIPINNDDPEEALEWANEIAKKAGARDVRVEIWSAGGSAGGS [r12_569_TrROS]"
result = "< -1 kcal/mol"


* * *

# test-protocol: folding stability dG unfold (combined trypsin and chymotrypsin); higher = more stable
Reported values of folding stability dG unfold for individual entries
parameter-measured: folding stability dG unfold (kcal/mol)

[[record]]
seq = "SAGGSAMTPEEARARAEAIAEELAAEARAAGRAAEVTVEVTELPPELYRFTITFPGRTREVLLPVESAGGSA [r15_432_JUSTAS]"
qualifier_sign = "="
result_number = -0.16

[[record]]
seq = "SAMKIKPGEKVKIKIEVKNKKTKKKKTIEIEVPVDEETGEVFTEDELKKLLEKLGIEVEEVKIVEIEKESAG [r14_93_TrROS_Hall]"
qualifier_sign = "="
result_number = 0.76

[[record]]
seq = "SAGGRIRIEYDPENGTITIYVPTPDGEITPDQVEEIAKLLMELWPNIEVEIEPHPNGMVRITIKIPPKSAGG [r13_291_TrROS]"
qualifier_sign = "="
result_number = 3.54

[[record]]
seq = "SAGGSAGGSAGEKDLPVIEVEFPFPSSFPLPLIKKFAEPFGVKKVEFFEDGTVKVLYVLDSAGGSAGGSAGG [r11_961_TrMRF]"
qualifier_sign = "="
result_number = 0.806

[[record]]
seq = "SAGGSAGGSAGGSHTFEFPGRKITIHRNPNGMYPIEIETNGKPREIMIPPNDLDKLLKASAGGSAGGSAGGS [r4_346_TrROS]"
qualifier_sign = "<"
result_number = -1

[[record]]
seq = "SAGGSAGGSAGGMPIPIIVIPTPPNGNFTPEQIKEVAEKLNDPVVLTEESDNSRVILVGSAGGSAGGSAGGS [r10_642_TrMRF]"
qualifier_sign = "="
result_number = 0.519

[[record]]
seq = "SAMLPSIIIAKAKEAIEKSGKPVPVVIKIPVYKKENGPPVSLEKAKEIFEKLKEAFPDVPIIIELEEPESAG [r14_636_TrMRF]"
qualifier_sign = "="
result_number = 0.766

[[record]]
seq = "SAGSATVTYDPDTNTVTVTLEGPDTTFTISFPNGEKLEVKATVKPLPDGSYKVLLEVYYPDGSKETFELSAG [r14_675_TrMRF]"
qualifier_sign = ">"
result_number = 6


* * *

# test-protocol: folding stability dG unfold (combined trypsin and chymotrypsin); higher = more stable
# binarize folding stability dG unfold: threshold 3 kcal/mol inclusive, high side MET, low side NOT MET

[[record]]
seq = "SAGGSAGGSAGTITTTTDPATGEYTVTIPIASGDGTPVGTIPVTVPKSDPSAAAAFIAATSAGGSAGGSAGG [r11_77_JUSTAS]"
label_value = "NOT MET"

[[record]]
seq = "SAGGMIQIERDKDGYLRITIWVPGDPKEAEEIAENIIELLQDLGFDEVDIDYEPFDGGVMIEITVKVSAGGS [r8_113_TrROS]"
label_value = "MET"

[[record]]
seq = "SAGGSAGGEYELLTFTLEFEVPPEVEHVEFEAELEDFDEILEVRARPDPETGTVRVEIVARARPSAGGSAGG [r6_712_TrMRF]"
label_value = "NOT MET"

[[record]]
seq = "SAGGSAGGSMNVKKVESEKDTGDGSTLTTNTVELPSNIIIVEPVLTPPSGNPQTTTKILPKGLSAGGSAGGS [r12_407_JUSTAS]"
label_value = "NOT MET"

[[record]]
seq = "SAGGSAGGSAGGKKLTFKAEIVSEEEIEINGKKYRIFKVKVTLPDGSKLTLTVIVELDDLSAGGSAGGSAGG [r7_846_TrROS_Hall]"
label_value = "MET"

[[record]]
seq = "SAGGSAGGSEVEITVTETEDTVTVTIRFKDTGKTVTITVPKDMTPEEVLARAKELLKKLGIEPSAGGSAGGS [r12_764_TrROS_Hall]"
label_value = "MET"

[[record]]
seq = "SAGGSAGGSAGGMNPIVIKKTYPVKSGSFTVTLPEGVTPVSFEKDPNSDTITIEVLVEPSAGGSAGGSAGGS [r10_906_JUSTAS]"
label_value = "NOT MET"

[[record]]
seq = "SAGMEPTTITVDVTIPPEVFARLSEEELKEKVLAELGIPESLPVEVEISRKEVKLDGKTVYVVPMTIVGSAG [r14_334_JUSTAS]"
label_value = "NOT MET"

[[record]]
seq = "SITITRDPDYYTLRIPPGMDSVEEVQDFLKELGFKLPPGVKDIQVEEVDKENNQVTITIQLDDPEAIQDLSA [r9_820_TrROS]"
label_value = "NOT MET"

[[record]]
seq = "SAGGSAGGSAGGMTLEIEINGLKVRIEFDEETKELRIEVEPAPPPVVVYEKEKLEEEEESAGGSAGGSAGGS [r10_724_TrROS_Hall]"
label_value = "NOT MET"

[[record]]
seq = "SAGGSAGGPNIRIIIKPDPENGTLKIWFVHPEPGRIQKYEFNMNGKWKIKEPVGPMKPGDPGLLSAGGSAGG [r6_149_TrROS]"
label_value = "NOT MET"

[[record]]
seq = "SAGPVKIQIEPDNGEEFEFRLPPNVSEIETSGDKFIIRFPPGMMFKIEIDEELPPGDTVPIRILDIVPSAGG [r19_274_TrROS]"
label_value = "NOT MET"

[[record]]
seq = "SAGGSAGGSVYLDPAVLAELEALRQAGLRVAEVREERVEVEGGPPRRVDVRAVVVDLPPEALAASAGGSAGG [r6_771_JUSTAS]"
label_value = "NOT MET"

[[record]]
seq = "SAGGETKTLTIKFYDPKTGKLVAEVTITYTPEKVTVTIRFADGTTETVEMTAEELLAKLPPGAVIVPSAGGS [r16_543_TrROS_Hall]"
label_value = "MET"

[[record]]
seq = "SAGGAPGVPSVTVIPFDPSTGRALALVVDGDRVYVISSAVPLEVLRELGVDRVEPLPDGTLVAVSLASAGGS [r8_382_TrMRF]"
label_value = "NOT MET"

[[record]]
seq = "SAGGSAGGSAEELLKKLAEELGLEEGDEVTIEVDGKLIKIYFNKDGKIVKVEVYELDPEDLSAGGSAGGSAG [r3_468_TrROS_Hall]"
label_value = "MET"

[[record]]
seq = "SAGGSAGGSAGKKYKVKVILQPKGEDKPLEIEIEVESLEEAKELLEKAFPDTRIRIDVIESAGGSAGGSAGG [r17_428_TrMRF]"
label_value = "NOT MET"

[[record]]
seq = "SAGGSAGGMKIEPIAEDEDYIVVRVEPDLPELLEELGLEVVGVEEEGDYVIVVVKVPPEVREKFSAGGSAGG [r6_108_TrMRF]"
label_value = "NOT MET"


* * *

# key: entry, value: folding stability dG unfold
# test-protocol: folding stability dG unfold (combined trypsin and chymotrypsin); higher = more stable
parameter-measured: folding stability dG unfold

[[record]]
seq = "SAGGMRIPLKQIKDVNHQPPPGNGYPMVTVKVRDGGKPHTHTIPNNMNWEEAKRMVEEALDEGPIEIESAGG [r13_225_TrROS]"
result = "< -1 kcal/mol"

[[record]]
seq = "SAGGSALKPGQPVMIHVRLKIERPDPDGDEKKIPEIHIPVPVEEAKDIAEALPPNYKVKIDDISIMSAGGSA [r15_833_TrROS]"
result = "< -1 kcal/mol"

[[record]]
seq = "SAGGSAGGSAGGSSVYTSPSKPIAITSRTLVPESNLVRVEAVDPSGAPIEGIIPPSATLGSAGGSAGGSAGG [r7_427_JUSTAS]"
result = "< -1 kcal/mol"

[[record]]
seq = "SAGGSAGGSARVFIVITYQNPGDGKPRQITIPIDIKDGKITLDDLKELFPGYPITNISIFPLSAGGSAGGSA [r18_494_TrROS]"
result = "3.65 kcal/mol"

[[record]]
seq = "SAGGGSIEDSNLSEEEIKEILSKLPEPVTVTVKRKEVKKVTYFENGKVKEEKIVEKEKTEVYYFPPKKSAGG [r13_632_JUSTAS]"
result = "< -1 kcal/mol"

[[record]]
seq = "SAGGSAVPKSDPVIRIKVKYPSNPQVITVPRSEIVEMEVGPPENIMTIKNPKTGKEYPATLLEILASAGGSA [r15_495_JUSTAS]"
result = "< -1 kcal/mol"

[[record]]
seq = "SMTAEVTLTIVYPDGTSTTLPMTFPADDPEALRAAIRAAVAAAGYTPTALQMTFTAQPDGSVRVDVTVTVAS [r1_281_JUSTAS]"
result = "5.61 kcal/mol"

[[record]]
seq = "SAGGSAKELIIKIKIKVKVNGKTYEIEIEIKAESIEEAIEAIKKKLEEEGLEIEIVEIEIIPKEELSAGGSA [r15_165_TrROS_Hall]"
result = "2.99 kcal/mol"

